Tested on: HBV viral production from HepAD38 cells
Experiment: Activity of test compounds on viral production from HepAD38 cells (viral load by qPCR of HBV core sequence in supernatant)
Format: cell-based
Conditions: Hepatitis B virus, 120 h, 5 days incubation, HBV DNA in supernatant by qPCR, top concentration 10 μM, read-out: Viral Load EC50 Activity range
pEC50: −log10 of the molar value.
quantity name: pEC50

{"compound": "CN1C(C(=O)Nc2ccc(F)c(Cl)c2)CC(c2ccc(F)cc2)NS1(=O)=O (stereo not drawn) [HBV-CSU-112 (Cis)]", "measured result": "> 6.00"}

Qu. What does the record list as pEC50 for [2H]C([2H])([2H])N1[C@H](C(=O)Nc2ccc(F)c(Cl)c2)C[C@H](c2ncc(-c3cn(C([2H])([2H])[2H])cn3)s2)NS1(=O)=O ?
Ans. > 6.00

Qu. GET /values?readout=pEC50&item= Cc1c(-c2csc([C@@H]3C[C@H](C(=O)Nc4ccc(F)c(Cl)c4)N(C)S(=O)(=O)N3)c2)cnn1C (relative stereo)
Ans. > 6.00

Qu. What does the data say about its pEC50? Entry: CN(C)CCN1[C@@H](c2cccs2)C[C@@H](C(=O)Nc2ccc(F)c(Cl)c2)N(C)S1(=O)=O (relative stereo)
Ans. < 5.30

Qu. Sample CN1[C@H](C(=O)Nc2ccc(F)c(Cl)c2)C[C@H](c2ccc(-c3nncn3C)s2)NS1(=O)=O — what was its pEC50?
Ans. > 6.00

Qu. Fill blank: measured pEC50 of the compound Cc1nn(C)cc1-c1ccc([C@H]2C[C@@H](C(=O)Nc3ccc(F)c(Cl)c3)N(C)S(=O)(=O)N2)s1 is ____.
Ans. > 6.00
